Assay Protocol: qHTS Assay for Lipid Storage Modulators (AID 1519); on activity change, negative = inhibition: on the % scale 0 is the no-effect control and ±100 the full control effect
Study Conditions: Drosophila S3 cells, BODIPY lipid droplet/cell ratio, laser cytometry; at 57.5 µM (top of the series); cells loaded with oleic acid
Inconclusive results are not listed. Activity calls are given as the source filed them. The call rests on the fitted dose curve.
Observed Property: activity change, negative = inhibition

Use these answered entries as a reference point.
CC(=O)N[C@@H]1C(O)OC(CO)C(O)C1O (stereo not given in full) | 4.62% (inactive)
NC1=NCCN1CC(=O)O | 4.53% (inactive)
COC1C[C@@H](O[C@@H]2C(C)C(=O)OC(C)C(C)C(O)C(C)C(=O)[C@@]3(CO3)CC(C)C(OC3OC(C)CC(N(C)C)C3O)C2C)OC(C)[C@@H]1O (stereo not given in full) | 4.89% (inactive)

Query: Record request: activity change, negative = inhibition value, item COC(=O)C(O)C1C(C)(C)C(OC(C)=O)C2CC3=C4CC(=O)OC(c5ccoc5)[C@]4(C)CCC3[C@@]1(C)C2=O (stereo not given in full)
Reply: 0.311% (inactive)

Query: I have this compound here, CC1OC(OCC2OC(Oc3c(-c4ccc(O)c(O)c4)oc4cc(O)cc(O)c4c3=O)C(O)C(O)C2O)[C@@H](O)C(O)C1O (stereo not given in full) , and I need its recorded activity change, negative = inhibition.
Reply: 4.3% (inactive)

Query: Consider the compound Nc1ncnc2c1[nH]c(=O)n2C1OC(CO)C(O)C1O (stereo not given) and give its measured activity change, negative = inhibition.
Reply: -0.198% (inactive)

Query: Fill in the blank: the reported activity change, negative = inhibition of O=C(NCO)c1cccnc1 is ____.
Reply: 5.95% (inactive)

Query: Recorded activity change, negative = inhibition for CC(=O)C1CCC2C3CCC4=CC(=O)CC[C@@]4(C)C3CC[C@]12C (stereo not given in full) , please?
Reply: 4.88% (inactive)

Query: Which measured activity change, negative = inhibition value corresponds to COc1ccc(CCC(=O)c2c(O)cc(OC3OC(CO)C(O)C(O)C3O[C@@H]3OC(C)C(O)C(O)C3O)cc2O)cc1O (stereo not given in full) ?
Reply: 7.07% (inactive)

Query: Entry under review: CC(=O)O[C@@]1(C(C)=O)CCC2C3C=C(Cl)C4=CC(=O)CC[C@]4(C)C3CC[C@]21C (stereo not given in full) . Reported activity change, negative = inhibition?
Reply: -2.19% (inactive)

Query: Item under review: COc1c(O)cccc1O . Reported activity change, negative = inhibition?
Reply: 5.35% (inactive)

###

Assay Protocol: qHTS Assay for Lipid Storage Modulators (AID 1519)
Study Conditions: Drosophila S3 cells, BODIPY lipid droplet/cell ratio, laser cytometry; measured here: lipid channel max response; cells loaded with oleic acid
Records with an inconclusive call do not appear.
Observed Property: max response (%)
Entry rule: numbers only, all in %.

Record excerpt, results attached:
CC1(C)CC2C1CC[C@]1(C)CCC3C(C(=O)O)CC(=O)O[C@]32C1 (stereo partly specified) | 10.6
COC(=O)/C(C)=C/CC12OC(C)(C)C3CC(C=C4C(=O)c5cc6c(c(CCC(C)(C)Cl)c5OC431)OC1(C)CCC(=C(C)C)C6C1)C2=O (stereo unspecified) | 20.5
CC1(C)CC2C1CCC1(C)OC2(C)CCC1O (stereo unspecified) | 15.9
Nc1ccn([C@@H]2CC[C@H](CO)O2)c(=O)n1 | -6.51
Cc1cc(O)c2c(c1O)C(=O)c1c(O)cc(C)c(O)c1C2=O | -8.79
NC(=O)N[C@H]1NC(=O)NC1=O | 17.1

Query: max response for Cc1onc(-c2c(Cl)cccc2Cl)c1C(=O)N[C@H]1C(=O)N2[C@H]1SC(C)(C)[C@H]2C(=O)O ?
Reply: -4.28

Query: What max response value was documented for this compound, CCCC(=O)Nc1ncnc2c1ncn2[C@@H]1O[C@H]2COP(=O)(O)O[C@@H]2[C@@H]1OC(=O)CCC ?
Reply: -4.54

Query: Suppose we examine the compound C=C(C)C1CC[C@]2(CO)CC[C@@]3(C)[C@H](CCC4[C@@]5(C)CCC(O)C(C)(C)C5CC[C@@]43C)C12 (stereo partly specified) ; what max response value has been reported?
Reply: -12.7

Query: Can you share its max response? I mean this compound: CC(C)C1CCC(C(=O)NC(Cc2ccccc2)C(=O)O)CC1 (stereo unspecified)
Reply: 10.2

Query: Using the record for CC(=O)OC1CC(OC(C)=O)[C@]2(C)C(CC(O)[C@]3(C)C2CC[C@@]2(C)C(c4ccoc4)OC(=O)C4O[C@]432)C1(C)C (stereo partly specified) , report its max response.
Reply: -11.8

Query: Param item = COC(=O)c1cc(=O)c(O)c2c(O)c(O)ccc2c1 ; retrieve measured max response.
Reply: -9.52

Query: May I ask what max response has been recorded for CCOC(=O)C(CCc1ccccc1)NC(C)C(=O)N1CCCC1C(=O)O (stereo unspecified) ?
Reply: 24.1
